- System: galium
- assay-explanation: Test A postemergence
- Assay type: in vivo, Galium aparine
- experimental-conditions: 125 g ai/ha, postemergence, 10 days, visual injury, 0 to 100 scale (0 no effect, 100 complete control)
Task for the reader: assign each of the following molecules its reported Plant response rating, Galium.
One number for each entry.

{"columns": ["molecule", "measurement-target", "attribute-measured", "reported"],
 "data": [
  ["Cc1cccc2c1O[C@@H](C)CN2C(=O)c1cccc(-n2cnc(C(C)(C)C)n2)c1", "galium", "Plant response rating, Galium", 100],
  ["CC1CN(C(=O)c2cccc(-n3cncn3)c2)c2cccc(C3CC3)c2O1 (stereo not drawn)", "galium", "Plant response rating, Galium", 50],
  ["CCc1ncn(-c2ccc(C)c(C(=O)N3C[C@H](C)Oc4c(Cl)cccc43)c2)n1", "galium", "Plant response rating, Galium", 100]
]}

Please report Plant response rating, Galium for every entry that follows.
1. Cc1cccc2c1O[C@@H](C)CN2C(=O)c1cccc(-n2cnc(C3CCC3)n2)c1
2. C[C@H]1CN(C(=O)c2cccc(-n3cncn3)c2)c2cccc(C#N)c2O1
3. Cc1cccc2c1O[C@@H](C)CN2C(=O)c1cc(-n2cncn2)ccc1F
4. CC1CN(C(=O)c2cc(F)cc(-n3cncn3)c2)c2cccc(Cl)c2O1 (stereo not drawn)
5. CCc1cccc2c1OC(C)CN2C(=O)c1cccc(-n2cncn2)c1 (stereo not drawn)

Reply text:
1. 100
2. 60
3. 60
4. 40
5. 30

Quick request: Plant response rating, Galium for each listed item, please.
1. CCC1CN(C(=O)c2cncc(-n3cncn3)c2)c2cccc(Cl)c2O1 (racemic)
2. CCc1ncn(-c2cccc(C(=O)N3C[C@H](C)Oc4c(C)cccc43)c2)n1
3. CC1CN(C(=O)c2cc(-n3cncn3)ccc2F)c2cccc(Cl)c2O1 (stereo not drawn)

Reply text:
1. 0
2. 100
3. 90

Inquiry: Param item = Cc1cccc2c1O[C@@H](C)CN2C(=O)c1ccc(F)c(-n2cncn2)c1 ; retrieve measured Plant response rating, Galium.
Reply text: 30
